- studySystem: SHP2-C SH2;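 note: peptide library displayed on the E. coli surface as eCPX fusions, selected cells deep-sequenced, score is each peptide's frequency after selection divided by its frequency in the input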
- protocol: SH2 binding enrichment of the phosphorylated peptide, bacterial display (enrichment ratio); higher = better substrate or ligand; peptides without Tyr show the background
experimentalEndpoint: SH2 binding enrichment
Returns: the value as a bare number; no unit string appended.

Input line: GET /values?readout=SH2 binding enrichment&item= PLCPDYQEPSR [DDR2_Y481_R478C]
Output line: 0.781

Input line: GET /values?readout=SH2 binding enrichment&item= ELCSEYRKSRK [SPINK5_Y440]
Output line: 0.726

Input line: GET /values?readout=SH2 binding enrichment&item= ADEDIYGVLPA [LYNtide_2014]
Output line: 0.794

More entries:
Input line: GET /values?readout=SH2 binding enrichment&item= PVADRYDQSFE [MAPK14_Y323_P322R]
Output line: 0.838

Input line: GET /values?readout=SH2 binding enrichment&item= ERRLIYTSDPK [VPS13D_Y864]
Output line: 0.663

Input line: GET /values?readout=SH2 binding enrichment&item= MSNSAYVKREV [SCN1A_Y1694_F1692S]
Output line: 0.753

Input line: GET /values?readout=SH2 binding enrichment&item= SKKSTYQALLD [GANC_Y43]
Output line: 0.595

Input line: GET /values?readout=SH2 binding enrichment&item= HVKHNYECLVF [XRCC5_Y416_I412V_YF]
Output line: 0.632

---

- Tested on: c-Src
- protocol: phosphorylation enrichment, bacterial display (enrichment ratio); higher = better substrate or ligand; peptides without Tyr show the background
Documented phosphorylation enrichment across a set of sequences

Input line: GET /values?readout=phosphorylation enrichment&item= LSALDYKIFYY [WDPCP_Y210]
Output line: 0.495

Input line: GET /values?readout=phosphorylation enrichment&item= HFPFQCHRQLY [F12_Y53_Y53C]
Output line: 0.422

Input line: GET /values?readout=phosphorylation enrichment&item= TPGPNYCPGFN [USH2A_Y463_R464C_YF]
Output line: 0.944

Input line: GET /values?readout=phosphorylation enrichment&item= CTTIHYNYLCN [TP53_Y234_M237L]
Output line: 0.394

Input line: GET /values?readout=phosphorylation enrichment&item= TDLAYYLVCKG [ASL_Y376_R379C]
Output line: 0.825

More entries:
Input line: GET /values?readout=phosphorylation enrichment&item= KASVDYIRKLQ [MITF_Y360]
Output line: 0.345

---

- Test system: AncSZ
- protocol: phosphorylation enrichment, bacterial display (enrichment ratio); higher = better substrate or ligand; peptides without Tyr show the background
Tick Criterion met if phosphorylation enrichment is 0.9 or greater. Tick Criterion not met if phosphorylation enrichment is less than 0.9.

Input line: Does the sequence EPNSRYTYKLE [USH2A_Y3745] have recorded phosphorylation enrichment that is 0.9 or more?
Output line: Criterion not met

Input line: Does the sequence LQKNIYSEELR [LMNA_Y211_F206L] have recorded phosphorylation enrichment that is 0.9 or more?
Output line: Criterion met

Input line: Does the sequence KLASTYREAAT [DEAF1_Y483_H479L] have recorded phosphorylation enrichment that is 0.9 or more?
Output line: Criterion not met

More entries:
Input line: Does the sequence FDGKDYIALNE [HLA-A_Y147_YF] have recorded phosphorylation enrichment that is 0.9 or more?
Output line: Criterion met

---

- studySystem: EPHB2 (UniProt P29323)
- Sequence (P29323 whole entry, looked up): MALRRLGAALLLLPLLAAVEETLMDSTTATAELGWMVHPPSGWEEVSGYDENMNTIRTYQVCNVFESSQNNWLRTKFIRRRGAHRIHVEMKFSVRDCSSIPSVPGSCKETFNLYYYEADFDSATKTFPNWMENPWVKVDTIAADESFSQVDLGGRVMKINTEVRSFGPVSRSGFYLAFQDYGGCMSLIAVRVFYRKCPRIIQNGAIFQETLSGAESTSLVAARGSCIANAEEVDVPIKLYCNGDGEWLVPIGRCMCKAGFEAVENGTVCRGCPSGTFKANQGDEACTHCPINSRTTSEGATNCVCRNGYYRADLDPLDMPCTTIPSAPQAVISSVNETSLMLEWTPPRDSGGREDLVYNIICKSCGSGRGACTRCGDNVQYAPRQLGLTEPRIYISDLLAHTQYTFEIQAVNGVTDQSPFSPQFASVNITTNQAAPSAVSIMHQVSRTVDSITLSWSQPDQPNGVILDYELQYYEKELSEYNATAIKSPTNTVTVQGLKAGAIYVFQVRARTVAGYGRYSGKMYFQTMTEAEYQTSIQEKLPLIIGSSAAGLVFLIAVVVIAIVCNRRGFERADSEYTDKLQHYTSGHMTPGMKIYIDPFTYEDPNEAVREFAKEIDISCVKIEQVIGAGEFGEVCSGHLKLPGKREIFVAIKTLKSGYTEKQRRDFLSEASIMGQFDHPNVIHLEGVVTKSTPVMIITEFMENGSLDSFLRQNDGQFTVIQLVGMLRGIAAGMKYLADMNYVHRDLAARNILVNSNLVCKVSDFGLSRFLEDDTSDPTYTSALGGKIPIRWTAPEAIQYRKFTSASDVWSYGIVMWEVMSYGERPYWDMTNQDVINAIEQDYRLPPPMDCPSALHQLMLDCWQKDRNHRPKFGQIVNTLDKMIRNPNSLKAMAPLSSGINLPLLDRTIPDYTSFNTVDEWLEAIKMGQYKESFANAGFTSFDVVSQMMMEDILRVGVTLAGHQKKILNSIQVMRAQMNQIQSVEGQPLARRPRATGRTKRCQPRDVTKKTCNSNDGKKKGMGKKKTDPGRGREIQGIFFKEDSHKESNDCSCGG
- protocol: phosphorylation enrichment, bacterial display (enrichment ratio); higher = better substrate or ligand; peptides without Tyr show the background
experimentalEndpoint: phosphorylation enrichment
Returns: the value as a bare number; no unit string appended.

Input line: GET /values?readout=phosphorylation enrichment&item= SSSGAYGGGYG [KRT19_Y61]
Output line: 0.403

Input line: GET /values?readout=phosphorylation enrichment&item= IGNGYYFHVFS [MYBPC3_Y1136_R1138H]
Output line: 0.552

Input line: GET /values?readout=phosphorylation enrichment&item= VFSSDYFSFVL [USP24_Y2138_YF]
Output line: 1.03

Input line: GET /values?readout=phosphorylation enrichment&item= KMKGDYYRSLA [YWHAG_Y130_Y133S]
Output line: 0.401

Input line: GET /values?readout=phosphorylation enrichment&item= TKQLTYEEQDL [PIK3C3_Y310]
Output line: 0.653

More entries:
Input line: GET /values?readout=phosphorylation enrichment&item= DTQNSYRCATS [TSC1_Y304_G305R]
Output line: 0.501

Input line: GET /values?readout=phosphorylation enrichment&item= MDDPRYGVCPL [ZNF100_Y6_M8V]
Output line: 0.632

Input line: GET /values?readout=phosphorylation enrichment&item= EQKKYYNAMKK [SCN5A_Y1495]
Output line: 0.332

Input line: GET /values?readout=phosphorylation enrichment&item= DIPIRYSITGV [CDH4_Y205]
Output line: 0.474

Input line: GET /values?readout=phosphorylation enrichment&item= LRTAVYHEILI [CREBBP_Y1450]
Output line: 1.85

Input line: GET /values?readout=phosphorylation enrichment&item= IGEGTYGVLFK [CDK2_Y15_V18L_YF]
Output line: 1.73

Input line: GET /values?readout=phosphorylation enrichment&item= VLTSKHRGGGG [HBA1_Y141_Y141H]
Output line: 0.225

Input line: GET /values?readout=phosphorylation enrichment&item= YDYKKYGKGLR [ZNF445_Y433]
Output line: 0.276
